# ASSAY_SYSTEM: human NTCP (Homo sapiens, UniProt Q14973)
# Sequence (Q14973 whole entry): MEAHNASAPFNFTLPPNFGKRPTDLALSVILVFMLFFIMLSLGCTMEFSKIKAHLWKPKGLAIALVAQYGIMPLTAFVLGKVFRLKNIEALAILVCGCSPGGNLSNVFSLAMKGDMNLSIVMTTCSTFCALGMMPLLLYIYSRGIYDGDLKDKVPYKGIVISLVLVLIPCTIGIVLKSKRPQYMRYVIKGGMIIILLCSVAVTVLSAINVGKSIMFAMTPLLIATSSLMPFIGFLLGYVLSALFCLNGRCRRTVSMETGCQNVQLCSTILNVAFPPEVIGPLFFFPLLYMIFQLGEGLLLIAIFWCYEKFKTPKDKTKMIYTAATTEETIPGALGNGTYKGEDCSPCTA
# MEASUREMENT_PROTOCOL: Screening taurocholate uptake assay (96-well, [14C]taurocholate, 10 µM drug)
# SETTINGS: ranking score beside the functional and binding assay B-scores of the screen
Counter-ions that a name gives are not always drawn.
ATTRIBUTE_MEASURED: Ranking score

                                   compound  attribute_measured   result
0     Cn1c(=O)c2c(ncn2C)n(C)c1=O [Caffeine]       Ranking score  818.709
1  CC(=O)Nc1nnc(S(N)(=O)=O)s1 [Acetazolamide]       Ranking score  696.956
2  CN(C/C=C/c1ccccc1)Cc1cccc2ccccc12 [Naftifine hydrochloride]       Ranking score  685.775

Query for human NTCP (Homo sapiens, UniProt Q14973): what Ranking score does the record show for Nc1ccn([C@H]2CC[C@@H](CO)O2)c(=O)n1 [Zalcitabine] ? 782.741

Give Ranking score (human NTCP (Homo sapiens, UniProt Q14973)) of the following compound: CC1CC(OC(=O)c2ccccc2O)CC(C)(C)C1 (stereo not drawn) [Homosalate] 811.615

Hello, I am looking for reported Ranking score with human NTCP (Homo sapiens, UniProt Q14973) for C[C@](N)(Cc1ccc(O)c(O)c1)C(=O)O [Methyldopa (L,-)] . Could you help? 793.128
